# test.method.notes: yeast display, Sf9 membrane polyspecificity reagent, FACS + sequencing; frameworks hold sequencing errors
result.type: polyreactivity (PSR sort gate)

macromolecule.sequence: QVQLVESGGGLVQARGSLRLSCAASGSTFYYYAMALSRQAPVKERELFASISDHGSTNYADSVKGRFTISRDNAKNTVFLQMNSMKPEDTAVYYCGAVWCLQFGSAWYQMGYWGQVTQVTVSS
polyreactivity (PSR sort gate): low polyreactivity
//
macromolecule.sequence: QVQLVESGGGLVQAGFSLRLSCAASGSTFQSYTMGRSRQAPGKERELVAAISSSGGRTYYADSVKGRYTISRDYAKNTVYLQMNSLNPEDTAVYYCAAVSKSWRGATWYDYWGQGTQVTVSS
polyreactivity (PSR sort gate): high polyreactivity
//
macromolecule.sequence: QVQLVESGGGLVQAGGTLRLSCAASGRIFTINAMGWYRQAPGKEREFVAAISGSGGTTYYADSVKGRFTISRDNAMNTVYLQMNSLKPEDTAVYYCAVSQSWYWYYASDYWGQGTQVTVSS
polyreactivity (PSR sort gate): low polyreactivity
//
macromolecule.sequence: QVQLVESGGGLVQAGGSLRLSCAASGFIFRYYAMGWLRQAPGKERELVAAISWSGGNTYYADSVKGRFTISRDNAKNTVYLQMNSLKPEDTAVYYCAARVARISVPYDYWGQGTQVTVSS
polyreactivity (PSR sort gate): low polyreactivity
//
macromolecule.sequence: QVQLVESGGGLVQAGGSLRLSCAAYGSTFQPYAMGWYRPATGKEREFVATISGSAGSTYYADSVKGRFKISRDNAKNTVYLQMNSLKPEDTAVDYCNADSGWFGYDYWGQGTQVTVSS
polyreactivity (PSR sort gate): low polyreactivity
//
macromolecule.sequence: QVQLVESGGGIVQAGGSLRLSCAASGRTFQPYAMGWYRQAPGKERELVAAITSIGGSTFYADSVKGRFTISRDNAKNTVYLQMNSLKPEDTAVYYCARRGYYRSKWERDYWGQGTQVTVSS
polyreactivity (PSR sort gate): low polyreactivity

Parameters: items (list). Returns: polyreactivity (PSR sort gate) for each item.
1. QVQLVESGGGLVQAGGSLRLSCAAYGSTYGTNALGWYRQAPGKERELVAAITSRVGRTYYADSVKGRFTISRDNAKNTVYLQMNSLKPEDTAVYYCAASRLVRYQSRYGSWGQGTQVTVSS
2. QVQLVESGGGLVQAGGSLRLSCAASGLTFKINAMGWYRQAPGKERELVAAIRSSGGRTYADSVKGRFTISRDNAKNTVYLQMNSLKPEDTAVYYCNKSPGYRSGRAVLYDYWGQGTQVTVSS
3. QVQLVESGGGLVQAGGSLRLSCAASGSTFQPNAMGWYRQAPGKERELVAAISKSDGRTYYADSVKGRFTISRDNAKNTVYLQMNSLQPEDTAVYNCAADAYWEPKVGFSLFDYWGQGTQVTVSS
4. QVQLVESGGGLVQAGGSLRLSCAASGSNFYDYAMGWYRQAPGKERELVAAISSGGGTYYADSVKGRFTISRDNAKNTVYLQMNSLKPEDTAVYYCNADTYEWFSDFSEDSYDYWGQGTQVTVSS
5. QVQLVESGGGLVQAGGSLRLSCAASGSTFVRYAMGWYRQAPGKEWELVARISGRSGSTYYADSEKGRFTISRDNAKNTVYLQMNSLKPEDTAVYFCAARAWYRVYAYDVWGQGTQVTVSS

high polyreactivity
low polyreactivity
low polyreactivity
low polyreactivity
high polyreactivity
